- tested.target: UniProt Q8TDV5
- Sequence (Q8TDV5 1-308 limits assumed): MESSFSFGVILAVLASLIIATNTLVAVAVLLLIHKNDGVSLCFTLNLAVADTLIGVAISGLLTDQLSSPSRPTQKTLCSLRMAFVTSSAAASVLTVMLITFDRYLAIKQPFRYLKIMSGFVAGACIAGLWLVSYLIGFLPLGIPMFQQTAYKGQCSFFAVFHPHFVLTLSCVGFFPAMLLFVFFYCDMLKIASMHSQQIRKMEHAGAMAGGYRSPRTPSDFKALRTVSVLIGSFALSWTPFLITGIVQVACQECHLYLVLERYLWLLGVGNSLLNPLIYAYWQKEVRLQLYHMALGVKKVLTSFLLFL
- protocol.description: Measurement of GPR119 signaling (cAMP assay) in HEK 293 cells stably transfected with human GPR119
- Format: cell-based
- run.parameters: table of Examples 5-56
- Experimental: Measurement of GPR119 Signaling (Cyclic AMP (cAMP) Assay) […] Briefly, cells with Alexa Fluor® 647-anti cAMP antibody were incubated with 10 point series diluted test article in stimulation buffer with a final concentration of 2.5% DMSO for 45 minutes. […] The assay was performed in duplicate in a 384 well plate for duplicate plates and fluorescence was measured at 665 nm. […] Standard cAMP concentrations were assayed concurrently for conversion of fluorescence signal to cAMP level. […]
Here the recorded EC50 is given for each entry.

{"columns": ["compound", "EC50, nM"],
 "data": [
  ["O=C(NC1CC1)c1ccc(OCC[C@@H]2C[C@@H]2C2CCN(CC(F)(F)C(F)F)CC2)cc1F", 3.16],
  ["O=C1Cc2cc(OCC[C@@H]3C[C@@H]3C3CCN(CC(F)(F)F)CC3)ccc2N1", 270],
  ["CCC(F)(F)CN1CCC([C@H]2C[C@H]2CCOc2cc(F)c(C(=O)NC3(C)CC3)c(F)c2)CC1", 1.2],
  ["COC(=O)c1c(F)cc(OCC[C@@H]2C[C@@H]2C2CCN(CC(F)(F)F)CC2)cc1F", 28.7],
  ["C=CCCC(=O)c1ccc(OCC[C@@H]2C[C@@H]2C2CCN(CC(F)(F)C(F)(F)F)CC2)cc1F", 13.4],
  ["O=C(NC1CCOCC1)c1c(F)cc(OCC[C@@H]2C[C@@H]2C2CCN(CC(F)(F)F)CC2)cc1F", 77.3],
  ["O=C(NC1CC1)c1ccc(OCC[C@@H]2C[C@@H]2C2CCN(CC(F)(F)F)CC2)cc1F", 16.7],
  ["O=C(c1c(F)cc(OCC[C@@H]2C[C@@H]2C2CCN(CC(F)(F)F)CC2)cc1F)N1CC(F)(F)C1", 45.8],
  ["O=C(NC1CC1)c1ccc(OCC[C@@H]2C[C@@H]2C2CCN(CC(F)(F)C(F)(F)F)CC2)cc1F", 0.52],
  ["CCC(F)(F)CN1CCC([C@H]2C[C@H]2CCOc2cc(F)c(C(=O)C3CC3)c(F)c2)CC1", 1.65],
  ["CCC(F)(F)CN1CCC([C@H]2C[C@H]2CCOc2ccc(S(C)(=O)=O)c(F)c2)CC1", 22.5],
  ["Cc1cc(OCC[C@@H]2C[C@@H]2C2CCN(CC(F)(F)F)CC2)cc(C#N)n1", 199],
  ["CC(C)(C)NC(=O)c1ccc(OCC[C@@H]2C[C@@H]2C2CCN(CC(F)(F)F)CC2)cc1F", 57.9],
  ["CC(C)(O)C1CCCN(C(=O)c2ccc(OCC[C@@H]3C[C@@H]3C3CCN(CC(F)(F)C(F)(F)F)CC3)cc2F)C1 (stereo partly shown)", 18.4],
  ["CS(=O)(=O)c1ccc(OCC[C@@H]2C[C@@H]2C2CCN(CC(F)(F)F)CC2)nc1", 27.8],
  ["O=C(c1ccc(OCC[C@@H]2C[C@@H]2C2CCN(CC(F)(F)F)CC2)cc1F)N1CCC(O)C1 (stereo partly shown)", 257],
  ["O=C(NCc1cnoc1)c1ccc(OCC[C@@H]2C[C@@H]2C2CCN(CC(F)(F)C(F)(F)F)CC2)cc1F", 3.69],
  ["O=C(NCCO)c1ccc(OCC[C@@H]2C[C@@H]2C2CCN(CC(F)(F)C(F)(F)F)CC2)cc1F", 5.38],
  ["Cc1nc(-c2ccc(OCC[C@@H]3C[C@@H]3C3CCN(CC(F)(F)C(F)(F)F)CC3)cc2)no1", 40.8],
  ["O=C(c1ccc(OCC[C@@H]2C[C@@H]2C2CCN(CC(F)(F)C(F)(F)F)CC2)cc1F)N1CCC(O)C1 (stereo partly shown)", 13.4],
  ["O=C(NC1CC1(F)F)c1c(F)cc(OCC[C@@H]2C[C@@H]2C2CCN(CC(F)(F)F)CC2)cc1F (stereo partly shown)", 5.87],
  ["CCC(F)(F)CN1CCC([C@H]2C[C@H]2CCOc2cc(F)c(S(C)(=O)=O)c(F)c2)CC1", 35.3],
  ["CS(=O)(=O)c1ccc(OCC[C@@H]2C[C@@H]2C2CCN(CC(F)(F)C(F)(F)F)CC2)cc1", 23.6],
  ["CCC(F)(F)CN1CCC([C@H]2C[C@H]2CCOc2cc(F)c(C(=O)NC3CC3)c(F)c2)CC1", 0.43],
  ["CC(C)(C)NC(=O)c1c(F)cc(OCC[C@@H]2C[C@@H]2C2CCN(CC(F)(F)F)CC2)cc1F", 12.2],
  ["O=C(NC1CC1)c1ccc(OCC[C@@H]2C[C@@H]2C2CCN(CCC(F)(F)F)CC2)cc1F", 59.3],
  ["Cc1nnc(-c2ccc(OCC[C@@H]3C[C@@H]3C3CCN(CC(F)(F)C(F)(F)F)CC3)cc2F)o1", 7.31],
  ["FC(F)(F)C(F)(F)CN1CCC([C@H]2C[C@H]2CCOc2ccc(-n3cncn3)cc2)CC1", 26.9]
]}

Data origin: patent US9018200B2
